molecular target: human cloned CHRM2 receptor (M2_CHO cells) (Homo sapiens); construct: expressed in transfected cells; host or cells: CHO-K1; experiment: CHRM2 Ca++ Flux Assay (agonist mode, FDSS 7000EX); format: cell-based; settings: agonist mode; geometric mean if tested more than once; read-out: M2 FDSS EC50
Sequence (P08172 whole entry): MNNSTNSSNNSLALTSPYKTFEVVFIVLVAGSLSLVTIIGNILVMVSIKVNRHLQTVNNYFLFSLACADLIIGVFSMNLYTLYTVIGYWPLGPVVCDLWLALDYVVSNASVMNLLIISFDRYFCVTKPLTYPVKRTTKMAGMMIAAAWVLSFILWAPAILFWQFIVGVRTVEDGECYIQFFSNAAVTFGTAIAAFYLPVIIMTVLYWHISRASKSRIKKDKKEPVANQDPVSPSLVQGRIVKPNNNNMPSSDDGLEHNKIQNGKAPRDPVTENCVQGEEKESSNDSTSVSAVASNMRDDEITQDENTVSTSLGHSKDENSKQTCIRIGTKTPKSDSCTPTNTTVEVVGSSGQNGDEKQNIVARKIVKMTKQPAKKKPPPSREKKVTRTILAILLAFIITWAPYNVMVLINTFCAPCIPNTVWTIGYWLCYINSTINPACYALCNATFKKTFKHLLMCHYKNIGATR
PARAMETER MEASURED: pEC50
Scale explanation: pEC50 corresponds to minus log10 of a concentration expressed in moles per litre.

>>> readout_number("Fc1cccc(C2CCN([C@@H]3CCC4(C3)CN(c3cncnc3)C4)CC2)c1OC1COC1")
7.24

Consider the record given below.
Which measured pEC50 value corresponds to c1ccc(C2CCN([C@@H]3CCC4(C3)CN(c3nnco3)C4)CC2)c(OC2COC2)c1 ? 7.46
